Experiment: Photophysical properties (fluorescence spectroscopy, quantum yield)
Format: physicochemical
Details: 5% FBS
measure_name: Φ, quantum yield

1) CCCCCN1/C(=C/C=C2\CCCC(/C=C/C3=[N+](CCCCC)c4ccc5ccccc5c4C3(C)C)=C2Cl)C(C)(C)c2c1ccc1ccccc21 = 0.03
2) CCN1/C(=C/C=C2\CCCC(/C=C/C3=[N+](CC)c4ccc5ccccc5c4C3(C)C)=C2Cl)C(C)(C)c2c1ccc1ccccc21 = 0.04
3) CCCCN1/C(=C/C=C2\CCCC(/C=C/C3=[N+](CCCC)c4ccc5ccccc5c4C3(C)C)=C2Cl)C(C)(C)c2c1ccc1ccccc21 = 0.04
4) CCCN1/C(=C/C=C2\CCCC(/C=C/C3=[N+](CCC)c4ccc5ccccc5c4C3(C)C)=C2Cl)C(C)(C)c2c1ccc1ccccc21 = 0.05
5) CCCCCCN1/C(=C/C=C2\CCCC(/C=C/C3=[N+](CCCCCC)c4ccc5ccccc5c4C3(C)C)=C2Cl)C(C)(C)c2c1ccc1ccccc21 = 0.03
6) CN1/C(=C/C=C2\CCCC(/C=C/C3=[N+](C)c4ccc5ccccc5c4C3(C)C)=C2Cl)C(C)(C)c2c1ccc1ccccc21 = 0.04

These measurements were taken from paper PMC4303146.
